For reference, pIC50 measured on Mast/stem cell growth factor receptor Kit (Homo sapiens, UniProt P10721):
pIC50: −log10 of the molar value.
Measurement type: pIC50

cpd_smiles=CN1CCN(Cc2ccc3c(c2)Cc2c-3n[nH]c2-c2ccc(CNC(=O)Nc3cccc(C(F)(F)F)c3)s2)CC1 study_system="Mast/stem cell growth factor receptor Kit (Homo sapiens, UniProt P10721)" assay_result=7.77
cpd_smiles=Cc1ccccc1NC(=O)NCc1ccc(-c2[nH]nc3c2Cc2ccc(CN4CCN(C)CC4)cc2-3)s1 study_system="Mast/stem cell growth factor receptor Kit (Homo sapiens, UniProt P10721)" assay_result=6.17
cpd_smiles=CN1CCN(Cc2ccc3c(c2)-c2n[nH]c(-c4ccc(CN(C)C(=O)Nc5ccc(Cl)cc5)s4)c2C3)CC1 study_system="Mast/stem cell growth factor receptor Kit (Homo sapiens, UniProt P10721)" assay_result=7.44
cpd_smiles=CN1CCN(Cc2ccc3c(c2)Cc2c(-c4ccc(CNC(=O)Nc5ccccc5Cl)s4)n[nH]c2-3)CC1 study_system="Mast/stem cell growth factor receptor Kit (Homo sapiens, UniProt P10721)" assay_result=6.04
cpd_smiles=Cc1ccc(NC(=O)NCc2ccc(-c3n[nH]c4c3Cc3ccc(CN5CCN(C)CC5)cc3-4)s2)cc1 study_system="Mast/stem cell growth factor receptor Kit (Homo sapiens, UniProt P10721)" assay_result=7.57
